Property: melting point

>  <Compound>
Nc1cccc2c1OCCO2

>  <melting point>
134 to 135 °C

$$$$
>  <Compound>
FC(F)(F)c1cccc2snnc12

>  <melting point>
41 to 44 °C

$$$$

Qu. For CCCCN(CCCC)C(=O)CCCC1(C(=O)NCCC)c2ccccc2-c2ccccc21 , what is its reported melting point?
Ans. 109 to 111 °C

Qu. Quick one: melting point for CS(=O)(=O)c1ccc(-c2cnn(C3CCc4ccccc43)c(=O)c2-c2ccc(F)cc2)cc1 (stereo not given) ?
Ans. 128 to 130 °C

Qu. Given the entry CCOC(C)n1c(CCc2cccc(O)c2)nc(-c2ccccc2)c1-c1ccccc1 (stereo not given) , report its measured melting point.
Ans. 166 to 167 °C

====

Quick reference: melting point of the listed items.

Illustrative cases are given below, each with its answer.
>  <Compound>
COc1c(N2CC(N)C2)c(F)cc2c(=O)c(C(=O)O)cn(-c3cc(N)c(F)cc3F)c12

>  <melting point>
> 290 °C

$$$$
>  <Compound>
O=[N+]([O-])c1ccc(Oc2cccc3ccccc23)nc1

>  <melting point>
87.3 to 89.3 °C

$$$$
>  <Compound>
CN1CCC2(CC1)Nc1cc(Cl)c(Cl)cc1-n1cccc12

>  <melting point>
214 to 215 °C

$$$$
>  <Compound>
N#Cc1ccn(-c2ccc([N+](=O)[O-])cc2F)c1

>  <melting point>
117 to 119 °C

$$$$
>  <Compound>
O=c1[nH]sc2c1c(=O)c1cc(F)c(F)c(F)c1n2C1CC1

>  <melting point>
243 to 245 °C

$$$$
>  <Compound>
Clc1ccc(C2=NNCC2c2ccccc2)cc1 (configuration not stated)

>  <melting point>
156 to 162 °C

$$$$
>  <Compound>
COc1c(NC(=O)c2ccc(Br)cc2)ccc2cc(CO)cnc12

>  <melting point>
185 to 187 °C

$$$$
>  <Compound>
CC1CN(C)CCC1Oc1cccc(NC(=O)c2ccc(F)cc2Cl)n1 (configuration not stated)

>  <melting point>
155 to 160 °C

$$$$

Qu. Fill in the blank: the reported melting point of O=C(NCc1ccccn1)c1ccc(N2CCN(C(=O)c3ccccc3C(F)(F)F)CC2)nn1 is ____.
Ans. 179 to 181 °C

Qu. Quick check: melting point of C=C(Br)c1cc(O)cc2nc(-c3ccc(O)cc3)oc12 ?
Ans. 228 to 230 °C

Qu. Find the recorded melting point belonging to CCCCNc1c(C(=O)OCC)cnc2cn[nH]c12 and report it.
Ans. 86 to 95 °C

Qu. I would be grateful if you could share the reported melting point for Cc1ccc(Cl)c(C(N)=O)c1N .
Ans. 149 to 152 °C

====

Property: melting point

Reference set (3 entries):
>  <Compound>
O=C(O)Cc1c(C(=O)c2ccc(OC(F)(F)F)cc2)[nH]c2cc(Cl)ccc12

>  <Property>
melting point

>  <Measured>
166 to 168 °C

$$$$
>  <Compound>
NC(=O)c1cc2c(SCc3ccc(Cl)cc3)cncc2s1

>  <Property>
melting point

>  <Measured>
198 to 199 °C

$$$$
>  <Compound>
CS(=O)(=O)c1ccc2c(c1)[nH]c(=O)c(=O)n2C1CCCCC1

>  <Property>
melting point

>  <Measured>
> 300 °C

$$$$

Qu. Tell me the measured melting point of COc1cc(Br)c(C2=NC(C)(C)CO2)cc1OC , please.
Ans. 49 to 51 °C

Qu. Look at this compound and give its reported melting point. CC(=O)NCCOC(=O)C(Oc1ccc(F)c(C(F)(F)F)c1)c1ccc(Cl)cc1 (centres undefined)
Ans. 108 °C

Qu. Any idea what melting point was measured for CCOC(=O)c1sc(Cl)nc1C(Cl)(Cl)Cl ?
Ans. 42.5 to 43.5 °C

Qu. Can you look up the measured melting point of O=c1c2cccnc2c(-c2ccccc2)nn1-c1ccccc1 for me?
Ans. 174 to 176 °C

Qu. State the recorded melting point for this entry: O=C(O)c1csc(Br)n1
Ans. 227 to 229 °C

Qu. Query: melting point; subject: Cn1cc([N+](=O)[O-])nc1C=O
Ans. 129 °C

Qu. Which melting point value is on record for NS(=O)(=O)c1cc(C(=O)O)cc(SCc2ccccn2)c1-c1ccccc1 ?
Ans. 83 to 86 °C

Qu. Look up melting point for this compound: CC(=O)c1cc2c(cc1NC(=O)C(O)(CC(C)(C)c1ccccc1)C(F)(F)F)COC2=O (centres undefined)
Ans. 195 to 199 °C

Qu. Fill blank: measured melting point of the compound COC(=O)CNS(=O)(=O)c1c(C(=O)OC)sc2ccccc12 is ____.
Ans. 148 to 150 °C

Qu. Which melting point reading was recorded for the compound Cc1ccc(S(=O)(=O)N2[C@@H](C#N)CC[C@H]2c2ccc(F)cc2)cc1 (racemic) ?
Ans. 128 °C

Qu. Entry under review: COc1cc2oc(=O)c(CCN3CCC(c4ccccc4)CC3)c(C)c2c(OC)c1OC . Reported melting point?
Ans. 117 to 118 °C

Qu. Any idea what its melting point is? The compound is Cc1nc2ccc(C(=O)O)nc2n1Cc1ccc(Cl)cc1Cl
Ans. > 260 °C

Qu. Query (compound): Cc1ccc(N=NN2C(C)(C)CC(O)CC2(C)C)cc1 ; field requested: melting point
Ans. 85 to 86 °C

Origin of values: a melting point compilation (Tetko et al.; mined from patent text by program, amines drawn as free bases though some values may be those of a salt)
